Recorded measurements of switch fluorescence ratio, one per entry
Test system: ATP;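 note: ATP exposure 15 min at 22 °C before imaging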
Measurement notes: switch fluorescence ratio, 500 uM ATP over buffer (Cy3 cluster intensity, sum of 5 cycles each) (fold (ratio)); higher = stronger signal-on switching upon ATP binding; sequences stand for … in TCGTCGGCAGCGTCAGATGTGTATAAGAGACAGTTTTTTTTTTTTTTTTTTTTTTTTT…TC
Assay setup: aptamer strand: ATP DNA aptamer (quencher-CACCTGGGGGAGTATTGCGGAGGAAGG + anchor), 100 nM annealed; ATP concentration: 500 uM
Experimental readout: switch fluorescence ratio

Sequence data: TAGCGGGGCT
System: ATP;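 note: ATP exposure 15 min at 22 °C before imaging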
Reported measurement: 1.04
--
Sequence data: CATGGGTGCG
System: ATP;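 note: ATP exposure 15 min at 22 °C before imaging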
Reported measurement: 1.02
--
Sequence data: GGGGTATGAC
System: ATP;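 note: ATP exposure 15 min at 22 °C before imaging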
Reported measurement: 1.02
--
Sequence data: AAGTGGATAT
System: ATP;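 note: ATP exposure 15 min at 22 °C before imaging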
Reported measurement: 0.999
--
Sequence data: GGTTCAAGGT
System: ATP;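 note: ATP exposure 15 min at 22 °C before imaging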
Reported measurement: 0.994
--
Sequence data: CAGTAGCGG
System: ATP;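 note: ATP exposure 15 min at 22 °C before imaging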
Reported measurement: 1.14
--
Sequence data: TTGGAGGCGT
System: ATP;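 note: ATP exposure 15 min at 22 °C before imaging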
Reported measurement: 0.981
--
Sequence data: CCTTATGCCA
System: ATP;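 note: ATP exposure 15 min at 22 °C before imaging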
Reported measurement: 1.09
--
Sequence data: AAAGGATGGG
System: ATP;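 note: ATP exposure 15 min at 22 °C before imaging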
Reported measurement: 1
--
Sequence data: ACGAGAAGGG
System: ATP;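 note: ATP exposure 15 min at 22 °C before imaging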
Reported measurement: 1.02
--
Sequence data: TGTTTAGCTT
System: ATP;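 note: ATP exposure 15 min at 22 °C before imaging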
Reported measurement: 1.02
--
Sequence data: TGTGATAGAG
System: ATP;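 note: ATP exposure 15 min at 22 °C before imaging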
Reported measurement: 0.989
--
Sequence data: AAAATCTAAT
System: ATP;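 note: ATP exposure 15 min at 22 °C before imaging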
Reported measurement: 1.01
--
Sequence data: CCTTATAGTT
System: ATP;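 note: ATP exposure 15 min at 22 °C before imaging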
Reported measurement: 0.995
--
Sequence data: GAATCGATAC
System: ATP;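 note: ATP exposure 15 min at 22 °C before imaging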
Reported measurement: 1.76
--
Sequence data: CCACATCCAT
System: ATP;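 note: ATP exposure 15 min at 22 °C before imaging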
Reported measurement: 1.04
--
Sequence data: ACTTTACAAA
System: ATP;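 note: ATP exposure 15 min at 22 °C before imaging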
Reported measurement: 1.28
--
Sequence data: GGTGTTAGGG
System: ATP;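 note: ATP exposure 15 min at 22 °C before imaging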
Reported measurement: 1.02
--
Sequence data: AATAGCCGGG
System: ATP;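 note: ATP exposure 15 min at 22 °C before imaging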
Reported measurement: 0.97
--
Sequence data: AGTAGTTTTG
System: ATP;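 note: ATP exposure 15 min at 22 °C before imaging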
Reported measurement: 0.98
--
Sequence data: GTTGTTATGT
System: ATP;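 note: ATP exposure 15 min at 22 °C before imaging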
Reported measurement: 1.01
--
Sequence data: GTTGCAGTTA
System: ATP;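 note: ATP exposure 15 min at 22 °C before imaging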
Reported measurement: 0.999
--
Sequence data: GTCTGGTTGA
System: ATP;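 note: ATP exposure 15 min at 22 °C before imaging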
Reported measurement: 1.02
--
Sequence data: TATCAGGTCC
System: ATP;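 note: ATP exposure 15 min at 22 °C before imaging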
Reported measurement: 0.998
--
Sequence data: TATAGCGGGG
System: ATP;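 note: ATP exposure 15 min at 22 °C before imaging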
Reported measurement: 1.02
--
Sequence data: GCGGGGTACT
System: ATP;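 note: ATP exposure 15 min at 22 °C before imaging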
Reported measurement: 1.11
--
Sequence data: GAGGGTTAAT
System: ATP;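 note: ATP exposure 15 min at 22 °C before imaging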
Reported measurement: 1.02
--
Sequence data: TTATATGATT
System: ATP;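 note: ATP exposure 15 min at 22 °C before imaging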
Reported measurement: 0.997
--
Sequence data: CAAAGGTTAG
System: ATP;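 note: ATP exposure 15 min at 22 °C before imaging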
Reported measurement: 1.02
--
Sequence data: AATTTGGGTT
System: ATP;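 note: ATP exposure 15 min at 22 °C before imaging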
Reported measurement: 1.04
--
Sequence data: ATGTTTGATT
System: ATP;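 note: ATP exposure 15 min at 22 °C before imaging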
Reported measurement: 0.999
--
Sequence data: GCTGGAAGCA
System: ATP;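 note: ATP exposure 15 min at 22 °C before imaging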
Reported measurement: 0.986
--
Sequence data: GACTTCGAAA
System: ATP;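 note: ATP exposure 15 min at 22 °C before imaging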
Reported measurement: 1.63
--
Sequence data: ATTTTTGGCC
System: ATP;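 note: ATP exposure 15 min at 22 °C before imaging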
Reported measurement: 1.02
--
Sequence data: TCCAATGATG
System: ATP;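 note: ATP exposure 15 min at 22 °C before imaging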
Reported measurement: 1.03
--
Sequence data: CGAGTAGGTT
System: ATP;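 note: ATP exposure 15 min at 22 °C before imaging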
Reported measurement: 1.01
--
Sequence data: CTTGGTGTTG
System: ATP;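 note: ATP exposure 15 min at 22 °C before imaging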
Reported measurement: 1.04
--
Sequence data: TAATGGTTGG
System: ATP;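 note: ATP exposure 15 min at 22 °C before imaging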
Reported measurement: 0.993
--
Sequence data: GGTCATTATT
System: ATP;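 note: ATP exposure 15 min at 22 °C before imaging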
Reported measurement: 0.968
--
Sequence data: TCTTACAATT
System: ATP;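 note: ATP exposure 15 min at 22 °C before imaging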
Reported measurement: 0.971
--
Sequence data: GCCTACGGCC
System: ATP;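 note: ATP exposure 15 min at 22 °C before imaging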
Reported measurement: 1
--
Sequence data: GTTAACGGGT
System: ATP;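 note: ATP exposure 15 min at 22 °C before imaging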
Reported measurement: 0.997
--
Sequence data: TAAAGGTTTT
System: ATP;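 note: ATP exposure 15 min at 22 °C before imaging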
Reported measurement: 0.974
